Molecular target: human CLDN18.2 (human)
Assay: cell-based or functional assay
MEASURED PARAMETER: ADCC EC50, PBMC effector cells, KATOIII target cells (nM)
One number for each entry, in nM.

Entry under review: humanized antibody hz28G3-1.1 (antibody, human IgG1, kappa, V domains shown) VH: QVQLVQSGAEVKKPGASVKVSCKTSGYSFTDYLMLWVRQAPGQGLEWMGNINPYYGRTTYALKFKGRVTMTVDRSTSTVYMELSSLRSEDTAVYYCARDGYSLRNAMDYWGQGTLVTVSS VL: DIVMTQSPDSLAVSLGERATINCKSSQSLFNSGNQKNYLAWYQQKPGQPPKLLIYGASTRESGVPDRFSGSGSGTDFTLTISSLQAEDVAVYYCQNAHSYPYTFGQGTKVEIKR . Reported ADCC EC50, PBMC effector cells, KATOIII target cells?
0.048

// provenance: patent US20240409629A1
